Data credit: the supplement of paper PMC10307832

So I've got a bunch of compounds here, and I need their relative viability values.
Test system: NCI-H1975
Measurement notes: relative viability (nuclei count vs DMSO), 5 days (fraction); higher = more cells survive
Condition description: first compound 0.001 µM
Numbers only.

Sample records with relative viability:
{"columns": ["Compound", "Study target", "relative viability"],
 "data": [
  ["Cc1cn(-c2cc(NC(=O)c3ccc(C)c(Nc4nccc(-c5cccnc5)n4)c3)cc(C(F)(F)F)c2)cn1 [Nilotinib] + N=C(N)NC(=N)NCCc1ccccc1 [Phenformin] (partner 250 µM)", "NCI-H1975", 0.406],
  ["Cc1cn(-c2cc(NC(=O)c3ccc(C)c(Nc4nccc(-c5cccnc5)n4)c3)cc(C(F)(F)F)c2)cn1 [Nilotinib] + CS(=O)(=O)N1CCN(Cc2cc3nc(-c4cccc5[nH]ncc45)nc(N4CCOCC4)c3s2)CC1 [Pictilisib] (partner 1 µM)", "NCI-H1975", 0.299],
  ["Cc1cn(-c2cc(NC(=O)c3ccc(C)c(Nc4nccc(-c5cccnc5)n4)c3)cc(C(F)(F)F)c2)cn1 [Nilotinib] + Cc1nc(NC(=O)N2CCC[C@H]2C(N)=O)sc1-c1ccnc(C(C)(C)C(F)(F)F)c1 [Alpelisib] (partner 2 µM)", "NCI-H1975", 0.723]
]}

Batch of 6 compounds: report relative viability for each.
1. Cc1cn(-c2cc(NC(=O)c3ccc(C)c(Nc4nccc(-c5cccnc5)n4)c3)cc(C(F)(F)F)c2)cn1 [Nilotinib] + CC1(C)CCC(c2ccc(Cl)cc2)=C(CN2CCN(c3ccc(C(=O)NS(=O)(=O)c4ccc(N[C@H](CCN5CCOCC5)CSc5ccccc5)c(S(=O)(=O)C(F)(F)F)c4)cc3)CC2)C1 [Navitoclax] (partner 0.5 µM)
2. Cc1cn(-c2cc(NC(=O)c3ccc(C)c(Nc4nccc(-c5cccnc5)n4)c3)cc(C(F)(F)F)c2)cn1 [Nilotinib] + Cc1nc(Nc2ncc(C(=O)Nc3c(C)cccc3Cl)s2)cc(N2CCN(CCO)CC2)n1 [Dasatinib] (partner 0.075 µM)
3. Cc1cn(-c2cc(NC(=O)c3ccc(C)c(Nc4nccc(-c5cccnc5)n4)c3)cc(C(F)(F)F)c2)cn1 [Nilotinib] + Nc1ncn([C@H]2C[C@H](O)[C@@H](CO)O2)c(=O)n1 [Decitabine] (partner 2 µM)
4. Cc1cn(-c2cc(NC(=O)c3ccc(C)c(Nc4nccc(-c5cccnc5)n4)c3)cc(C(F)(F)F)c2)cn1 [Nilotinib] + CC(C)C[C@H](NC(=O)[C@H](Cc1ccccc1)NC(=O)c1cnccn1)B(O)O [Bortezomib] (partner 0.002 µM)
5. Cc1cn(-c2cc(NC(=O)c3ccc(C)c(Nc4nccc(-c5cccnc5)n4)c3)cc(C(F)(F)F)c2)cn1 [Nilotinib] + Nc1nc2[nH]cc(CCc3ccc(C(=O)N[C@@H](CCC(=O)O)C(=O)O)cc3)c2c(=O)[nH]1 [Pemetrexed] (partner 0.2 µM)
6. Cc1cn(-c2cc(NC(=O)c3ccc(C)c(Nc4nccc(-c5cccnc5)n4)c3)cc(C(F)(F)F)c2)cn1 [Nilotinib] + CCNC(=O)c1noc(-c2cc(C(C)C)c(O)cc2O)c1-c1ccc(CN2CCOCC2)cc1 [Luminespib] (partner 0.01 µM)

Reply |
[0.904, 0.312, 0.339, 0.32, 0.294, 0.212]

* * *

Test system: NCI-H1944
Measurement notes: relative viability (nuclei count vs DMSO), 5 days (fraction); higher = more cells survive
Condition description: first compound 0.003162 µM
So I've got a bunch of compounds here, and I need their relative viability values.
Numbers only.

Sample records with relative viability:
{"columns": ["Compound", "Val"],
 "data": [
  ["Cc1cn(-c2cc(NC(=O)c3ccc(C)c(Nc4nccc(-c5cccnc5)n4)c3)cc(C(F)(F)F)c2)cn1 [Nilotinib] + NC(=O)Nc1cc(-c2cccc(F)c2)sc1C(=O)N[C@H]1CCCNC1 [AZD7762] (partner 0.2 µM)", 0.75],
  ["Cc1cn(-c2cc(NC(=O)c3ccc(C)c(Nc4nccc(-c5cccnc5)n4)c3)cc(C(F)(F)F)c2)cn1 [Nilotinib] + CCNC(=O)c1noc(-c2cc(C(C)C)c(O)cc2O)c1-c1ccc(CN2CCOCC2)cc1 [Luminespib] (partner 0.01 µM)", 0.669]
]}

Ask | Value lookup for relative viability; key = Cc1cn(-c2cc(NC(=O)c3ccc(C)c(Nc4nccc(-c5cccnc5)n4)c3)cc(C(F)(F)F)c2)cn1 [Nilotinib] + CS(=O)(=O)N1CCN(Cc2cc3nc(-c4cccc5[nH]ncc45)nc(N4CCOCC4)c3s2)CC1 [Pictilisib] (partner 1 µM)
Reply | 0.342

* * *

Test system: NCI-H1755
Measurement notes: relative viability (nuclei count vs DMSO), 5 days (fraction); higher = more cells survive
Condition description: first compound 0.006325 µM
So I've got a bunch of compounds here, and I need their relative viability values.
Numbers only.

Batch of 6 compounds: report relative viability for each.
1. CCNC(=O)c1noc(-c2cc(C(C)C)c(O)cc2O)c1-c1ccc(CN2CCOCC2)cc1 [Luminespib] + C[C@@H](Oc1cc(-c2cnn(C3CCNCC3)c2)cnc1N)c1c(Cl)ccc(F)c1Cl [Crizotinib] (partner 1 µM)
2. CCNC(=O)c1noc(-c2cc(C(C)C)c(O)cc2O)c1-c1ccc(CN2CCOCC2)cc1 [Luminespib] + NC(=O)Nc1cc(-c2cccc(F)c2)sc1C(=O)N[C@H]1CCCNC1 [AZD7762] (partner 0.2 µM)
3. CCNC(=O)c1noc(-c2cc(C(C)C)c(O)cc2O)c1-c1ccc(CN2CCOCC2)cc1 [Luminespib] + N=C(N)NC(=N)NCCc1ccccc1 [Phenformin] (partner 250 µM)
4. CCNC(=O)c1noc(-c2cc(C(C)C)c(O)cc2O)c1-c1ccc(CN2CCOCC2)cc1 [Luminespib] + O=C(c1cc(Cc2n[nH]c(=O)c3ccccc23)ccc1F)N1CCN(C(=O)C2CC2)CC1 [Olaparib] (partner 8 µM)
5. CCNC(=O)c1noc(-c2cc(C(C)C)c(O)cc2O)c1-c1ccc(CN2CCOCC2)cc1 [Luminespib] + Cc1nc(Nc2ncc(C(=O)Nc3c(C)cccc3Cl)s2)cc(N2CCN(CCO)CC2)n1 [Dasatinib] (partner 0.075 µM)
6. CCNC(=O)c1noc(-c2cc(C(C)C)c(O)cc2O)c1-c1ccc(CN2CCOCC2)cc1 [Luminespib] + Cc1nc(NC(=O)N2CCC[C@H]2C(N)=O)sc1-c1ccnc(C(C)(C)C(F)(F)F)c1 [Alpelisib] (partner 2 µM)

Reply |
[0.882, 0.355, 0.552, 0.808, 0.472, 0.887]

Batch of 2 compounds: report relative viability for each.
1. CCNC(=O)c1noc(-c2cc(C(C)C)c(O)cc2O)c1-c1ccc(CN2CCOCC2)cc1 [Luminespib] + C[C@]1(O)C[C@@H](c2nc(-c3ccc4ccc(-c5ccccc5)nc4c3)c3c(N)nccn32)C1 [Linsitinib] (partner 1 µM)
2. CCNC(=O)c1noc(-c2cc(C(C)C)c(O)cc2O)c1-c1ccc(CN2CCOCC2)cc1 [Luminespib] + Nc1nc2[nH]cc(CCc3ccc(C(=O)N[C@@H](CCC(=O)O)C(=O)O)cc3)c2c(=O)[nH]1 [Pemetrexed] (partner 0.2 µM)

Reply |
0.944
0.424

* * *

System: NCI-H460
Measurement notes: relative viability (nuclei count vs DMSO), 5 days (fraction); higher = more cells survive
Condition description: first compound 0.02 µM
Assay metric: relative viability
Give bare numbers.

Sample records with relative viability:
{"columns": ["Compound", "Assay metric", "Val"],
 "data": [
  ["CN1CCN(CCOc2cc(OC3CCOCC3)c3c(Nc4c(Cl)ccc5c4OCO5)ncnc3c2)CC1 [Saracatinib] + Cc1cc(Nc2cc(N3CCN(C)CC3)nc(Sc3ccc(NC(=O)C4CC4)cc3)n2)n[nH]1 [Tozasertib] (partner 0.1 µM)", "relative viability", 0.407],
  ["CN1CCN(CCOc2cc(OC3CCOCC3)c3c(Nc4c(Cl)ccc5c4OCO5)ncnc3c2)CC1 [Saracatinib] + O=C(c1cc(Cc2n[nH]c(=O)c3ccccc23)ccc1F)N1CCN(C(=O)C2CC2)CC1 [Olaparib] (partner 8 µM)", "relative viability", 0.416],
  ["CCNC(=O)c1noc(-c2cc(C(C)C)c(O)cc2O)c1-c1ccc(CN2CCOCC2)cc1 [Luminespib] + N=C(N)NC(=N)NCCc1ccccc1 [Phenformin] (partner 250 µM)", "relative viability", 0.0329]
]}

Turning to the following compound.
Ask | Value lookup for relative viability; key = CCNC(=O)c1noc(-c2cc(C(C)C)c(O)cc2O)c1-c1ccc(CN2CCOCC2)cc1 [Luminespib] + CC(=O)c1c(C)c2cnc(Nc3ccc(N4CCNCC4)cn3)nc2n(C2CCCC2)c1=O [Palbociclib] (partner 0.5 µM)
Reply | 0.0359

* * *

System: NCI-H1792
Measurement notes: relative viability (nuclei count vs DMSO), 5 days (fraction); higher = more cells survive
Condition description: first compound 6.325 µM
Mark Criterion met only for relative viability values smaller than 0.5; exact matches and larger values are Criterion not met.

{"columns": ["Compound", "Label value"],
 "data": [
  ["Cc1csc(=NC2CCCCC2)n1/N=C/c1ccc(O)c(O)c1O [MIM1] + CCNC(=O)c1noc(-c2cc(C(C)C)c(O)cc2O)c1-c1ccc(CN2CCOCC2)cc1 [Luminespib] (partner 0.01 µM)", "Criterion met"],
  ["Cc1csc(=NC2CCCCC2)n1/N=C/c1ccc(O)c(O)c1O [MIM1] + Nc1ncn([C@H]2C[C@H](O)[C@@H](CO)O2)c(=O)n1 [Decitabine] (partner 2 µM)", "Criterion met"],
  ["Cc1csc(=NC2CCCCC2)n1/N=C/c1ccc(O)c(O)c1O [MIM1] + COc1cccc2cc(-c3nc([C@H]4CC[C@H](C(=O)O)CC4)n4ncnc(N)c34)[nH]c12 [OSI-027] (partner 0.5 µM)", "Criterion not met"]
]}

Ask | Criterion: relative viability strictly below 0.5. Is it met by Cc1csc(=NC2CCCCC2)n1/N=C/c1ccc(O)c(O)c1O [MIM1] + C[C@@H](Oc1cc(-c2cnn(C3CCNCC3)c2)cnc1N)c1c(Cl)ccc(F)c1Cl [Crizotinib] (partner 1 µM) ?
Reply | Criterion met
